Value source: the supplement of paper PMC11246515

# EXPERIMENT DESCRIPTION: total protein half-life in vivo (active degradation + dilution); higher = more stable protein
# MEASUREMENT PARAMETERS: wild type E. coli NCM3722; growth: P-lim chemostat; doubling time 6 h
Rule: total protein half-life in vivo under 5 h gives not met, otherwise met.

# RESIDUE STRING, CAT
measured = [
    ("MIALIQRVTRASVTVEGEVTGEIGAGLLVLLGVEKDDDEQKANRLCERVLGYRIFSDAEGKMNLNVQQAGGSVLVVSQFTLAADTERGMRPSFSKGASPDRAEALYDYFVERCRQQEMNTQTGRFAADMQVSLVNDGPVTFWLQV [P0A6M4]", "met"),
    ("MNYSLKQLKVFVTVAQEKSFSRAGERIGLSQSAVSHSVKELENHTGVRLLDRTTREVVLTDAGQQLALRLERLLDELNSTLRDTGRMGQQLSGKVRVAASQTISAHLIPQCIAESHRRYPDIQFVLHDRPQQWVMESIRQGDVDFGIVIDPGPVGDLQCEAILSEPFFLLCHRDSALAVEDYVPWQALQGAKLVLQDYASGSRPLIDAALARNGIQANIVQEIGHPATLFPMVAAGIGISILPALALPLPEGSPLVVKRITPVVERQLMLVRRKNRSLSTAAEALWDVVRDQGNALMAGREGDPLYQI [P0ACR7]", "not met"),
    ("MKQTVYIASPESQQIHVWNLNHEGALTLTQVVDVPGQVQPMVVSPDKRYLYVGVRPEFRVLAYRIAPDDGALTFAAESALPGSPTHISTDHQGQFVFVGSYNAGNVSVTRLEDGLPVGVVDVVEGLDGCHSANISPDNRTLWVPALKQDRICLFTVSDDGHLVAQDPAEVTTVEGAGPRHMVFHPNEQYAYCVNELNSSVDVWELKDPHGNIECVQTLDMMPENFSDTRWAADIHITPDGRHLYACDRTASLITVFSVSEDGSVLSKEGFQPTETQPRGFNVDHSGKYLIAAGQKSHHISVYEIVGEQGLLHEKGRYAVGQGPMWVVVNAH", "met"),
    ("MIFLMTKDSFLLQGFWQLKDNHEMIKINSLSEIKKVGNKPFKVIIDTYHNHILDEEAIKFLEKLDAERIIVLAPYHISKLKAKAPIYFVSRKESIKNLLEITYGKHLPHKNSQLCFSHNQFKIMQLILKNKNESNITSTLNISQQTLKIQKFNIMYKLKLRRMSDIVTLGITSYF", "not met"),
    ("MSEIKDVIVQGLWKNNSALVQLLGLCPLLAVTSTATNALGLGLATTLVLTLTNLTISTLRHWTPAEIRIPIYVMIIASVVSAVQMLINAYAFGLYQSLGIFIPLIVTNCIVVGRAEAFAAKKGPALSALDGFSIGMGATCAMFVLGSLREIIGNGTLFDGADALLGSWAKVLRVEIFHTDSPFLLAMLPPGAFIGLGLMLAGKYLIDERMKKRRAEAAAERALPNGETGNV", "not met"),
]

Now look at this entry.
Has MWIGIISLFPEMFRAITDYGVTGRAVKNGLLSIQSWSPRDFTHDRHRTVDDRPYGGGPGMLMMVQPLRDAIHAAKAAAGEGAKVIYLSPQGRKLDQAGVSELATNQKLILVCGRYEGIDERVIQTEIDEEWSIGDYVLSGGELPAMTLIDSVSRFIPGVLGHEASATEDSFAEGLLDCPHYTRPEVLEGMEVPPVLLSGNHAEIRRWRLKQSLGRTWLRRPELLENLALTEEQARLLAEFKTEHAQQQHKHDGMA [P0A873] a recorded total protein half-life in vivo greater than or equal to 5 h?
met
